# maps each entry to its TGI
# System: CAKI-1 renal
# ASSAY_INFO: NCI tumour cell line growth inhibition, 48 h

1) O=C(N/C(=C/c1ccc(Cl)cc1Cl)c1nc2ccccc2s1)c1ccccc1; 30 µM
2) C[C@]12CCc3sc(NCCc4ccccc4)nc3C1=CC[C@@H]1[C@@H]2CC[C@]2(C)C(=O)CC[C@@H]12; 11.1 µM
3) COC(=O)C1CN=CN1CCc1ccccc1 (configuration not stated); > 100 µM
4) O=c1ccn(C2CC(O)C(CO)O2)c(=O)[nH]1 (configuration not stated); > 5000 µM
5) COCC(O)Cn1ccnc1[N+](=O)[O-] (configuration not stated); > 100 µM
6) O=C(CCc1ccc(O)c(O)c1)NCCc1cc(O)cc(O)c1; > 100 µM
7) Cc1cn(C2CC(O)C(COC(=O)NCCC(F)(F)C(F)(F)C(F)(F)C(F)(F)F)O2)c(=O)[nH]c1=O (configuration not stated); > 100 µM
8) CCC1CN(C(=O)c2ccccc2)C(Cc2c[nH]c3ccccc23)C(=O)C1CC(=O)OC (configuration not stated); > 100 µM
9) COc1nc(C#CC2(O)CCCCC2)nc(OC)n1; 15.9 µM
10) COc1cc2oc3cc(=O)cc4oc(-c5ccccc5)cc(c2c2c1CCC(c1ccccc1)O2)c43 (configuration not stated); > 100 µM

## Task Look at this compound and give its reported TGI. Cc1nn(C(=O)Cc2ccccc2)c2c1C(c1ccc(O)cc1O)SC(N)=N2 (configuration not stated)
## Result > 100 µM

## Task Look at this compound and give its reported TGI. Cn1c2ccc3cc2c(=S)c2cc(ccc21)OCCOCCOCCOCCOCCO3
## Result > 10 µM

## Task Look at this compound and give its reported TGI. Cc1ccc([N+](=O)[O-])cc1NC(=O)/C(=N/NC(=S)NN)C1SC(=S)NC1=O (configuration not stated)
## Result > 100 µM

###

# Test system: BT-549 breast
# ASSAY_INFO: NCI tumour cell line growth inhibition, 48 h; in the data active = GI50 below about 0.43 µM; inactive = the rest
One label from this list, please: active, inactive

## Task Look up the recorded call for CCn1cc(C(=O)N/N=C/c2ccccc2)c(=O)c2cc(F)c(N3CCNC(C)C3)c(F)c21 (stereo not given) in this test.
## Result inactive

## Task Look up the recorded call for NC(=O)c1ccccc1Nc1ccc2nnc(-c3ccncc3)n2n1 in this test.
## Result inactive

## Task Look up the recorded call for O=c1ccn(C2CC(O)C(CO)O2)c(=O)[nH]1 (stereo not given) in this test.
## Result inactive

## Task Look up the recorded call for O=C(Cn1c(=O)c(-c2ccccc2)nc2ccccc21)Nc1ccc(F)cc1 in this test.
## Result inactive

## Task Look up the recorded call for CCCCC[C@H]1C/C=C2/C(=O)C=C[C@@H]2C/C=C\CCCC(=O)O[C@@H](CCCCC)C/C=C2/C(=O)C=C[C@@H]2C/C=C\CCCC(=O)O1 in this test.
## Result active

## Task Look up the recorded call for O=S(=O)(Nc1ccc(Br)c(Cl)c1)c1ccc(-c2cnc(C3CC3)o2)cc1 in this test.
## Result inactive

## Task Look up the recorded call for C=C1/C(=C\C=C2/CCC[C@]3(C)[C@@H]([C@H](C)CCCC(C)(C)O)CC[C@@H]23)C[C@@H](OC(=O)CBr)C[C@@H]1O in this test.
## Result inactive

## Task Look up the recorded call for CCOC(=O)c1cc2c(n1Cc1cccc(OC)c1)-c1oncc1CCC2 in this test.
## Result inactive

## Task Look up the recorded call for CN1CCN(CCOc2ccc(-c3cnc4c(-c5ccc(C(F)(F)F)cc5)cnn4c3)cc2)CC1 in this test.
## Result inactive

## Task Look up the recorded call for CCCc1cc(=O)[nH]c(-n2nc(C)cc2C)n1 in this test.
## Result inactive

## Task Look up the recorded call for CN[C@H](C#Cc1c(F)ccc2c1/C(=C/c1[nH]ccc1OC)C(=O)N2)CO in this test.
## Result inactive

## Task Look up the recorded call for COc1cccc(-n2nc(C)c3c(N/N=C(\C)c4ccncc4)ncnc32)c1 in this test.
## Result inactive

## Task Look up the recorded call for CCn1cnc(C[C@H](NC(=O)[C@@H](NC(=O)Nc2cc(C(F)(F)F)cc(C(F)(F)F)c2)C(C)C)C(=O)OC)c1 in this test.
## Result inactive

## Task Look up the recorded call for COc1cc2c3c(n(CCCCN)c(=O)c2cc1OC)-c1cc2c(cc1C3=O)OCO2 in this test.
## Result inactive

## Task Look up the recorded call for O=C1C(N2CC2)=C(N2CC2)C(=O)C(N2CC2)=C1N1CC1 in this test.
## Result active
